# assay.system: 72 kDa type IV collagenase (Homo sapiens) (UniProt P08253)
# Sequence (P08253 110-660 limits assumed): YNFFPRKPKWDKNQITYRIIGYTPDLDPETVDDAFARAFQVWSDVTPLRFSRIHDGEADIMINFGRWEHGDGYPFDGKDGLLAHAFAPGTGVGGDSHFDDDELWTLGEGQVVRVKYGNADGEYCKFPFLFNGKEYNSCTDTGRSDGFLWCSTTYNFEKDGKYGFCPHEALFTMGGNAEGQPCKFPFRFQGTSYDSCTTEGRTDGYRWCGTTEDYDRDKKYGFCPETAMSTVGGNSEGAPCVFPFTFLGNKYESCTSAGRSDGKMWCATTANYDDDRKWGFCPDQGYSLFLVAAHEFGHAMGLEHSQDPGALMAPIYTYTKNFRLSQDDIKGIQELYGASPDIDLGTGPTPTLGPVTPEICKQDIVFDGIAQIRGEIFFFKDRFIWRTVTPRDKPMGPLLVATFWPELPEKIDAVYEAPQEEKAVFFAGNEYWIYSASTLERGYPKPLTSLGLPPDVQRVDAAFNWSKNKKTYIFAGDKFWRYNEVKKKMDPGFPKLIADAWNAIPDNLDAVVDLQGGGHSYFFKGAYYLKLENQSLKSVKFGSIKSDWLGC
# protocol.description: Inhibition of MMP2 in UVB irradiated human dermal fibroblasts at <5 uM by zymography
The source made the active and inactive calls. The calls are words filed in the database; no cut-off is given here.
measurement.name: Activity

Below: 4 compounds and their reported Activity.
compound: O=c1cc(-c2ccc(O)c(-c3c(O)c(O)c(O)c4c(=O)cc(-c5ccc(O)cc5)oc34)c2)oc2cc(O)cc(O)c12 [SUMAFLAVONE]
Activity: inactive
--
compound: O=c1cc(-c2ccc(O)cc2-c2c(O)cc(O)c3c(=O)cc(-c4ccc(O)cc4)oc23)oc2cc(O)cc(O)c12
Activity: inactive
--
compound: O=c1cc(-c2ccc(O)c(-c3c(-c4ccc(O)cc4)oc4cc(O)cc(O)c4c3=O)c2)oc2cc(O)cc(O)c12 [TAIWANIAFLAVONE]
Activity: inactive
--
compound: O=c1cc(-c2ccc(O)c(-c3c(O)cc(O)c4c(=O)cc(-c5ccc(O)cc5)oc34)c2)oc2cc(O)cc(O)c12 [AMENTOFLAVONE]
Activity: inactive

Would you kindly look at the next entry?
Recall the reported Activity of O=c1cc(-c2ccc(O)c(-c3c(O)cc4oc(-c5ccc(O)cc5)cc(=O)c4c3O)c2)oc2cc(O)cc(O)c12 when tested on 72 kDa type IV collagenase (Homo sapiens) (UniProt P08253).
inactive
